- System tested: human bradykinin 1 receptor (B1R) (Homo sapiens, UniProt P46663)
- Construct: expressed in transfected cells; host or cells: CHO K1 cells
- Sequence (P46663 whole entry): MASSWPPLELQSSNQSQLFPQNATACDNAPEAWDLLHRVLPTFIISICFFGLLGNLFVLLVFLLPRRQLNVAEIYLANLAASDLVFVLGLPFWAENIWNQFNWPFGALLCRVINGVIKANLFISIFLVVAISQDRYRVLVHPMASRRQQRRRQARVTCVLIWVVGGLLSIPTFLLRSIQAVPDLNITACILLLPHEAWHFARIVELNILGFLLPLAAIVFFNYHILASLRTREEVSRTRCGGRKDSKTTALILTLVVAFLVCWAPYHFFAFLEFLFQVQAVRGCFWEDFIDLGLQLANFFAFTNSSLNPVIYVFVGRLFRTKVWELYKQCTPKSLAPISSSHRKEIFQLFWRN
- Method summary: Functional investigation on the human bradykinin 1 receptor (B1R), Ca2+ FLIPR assay in CHO K1 hB1R cells
- Assay type: cell-based
- Particulars: CHO-K1, B1R antagonism human; test substance 10 μM; Ca2+ FLIPR, CHO K1 hB1R cells; read-out: B1R Ant. h [10 μM] % Inhibition
- Source text: Functional Investigation on the Human Bradykinin 1 Receptor (B1R) The agonistic or antagonistic action of substances can be determined on the bradykinin 1 receptor (B1R) of the human species and rats with the following assay. In accordance with this assay, the Ca^2+ inflow through the channel is quantified with the aid of a Ca^2=-sensitive dyestuff (type Fluo-4, Molecular Probes Europe BV, Leiden, Holland) in a fluorescent imaging plate reader (FLIPR, Molecular Devices, Sunnyvale, USA). […]
Measured quantity: inhibition at 10 µM (%)
Answers are plain numbers, in %.

Below are worked cases with known answers.
INSERT INTO assay_data (compound, experimental_result) VALUES
  ('COc1cc(C)c(S(=O)(=O)N2CCCC2COCC(=O)NC2CCC(C(c3ccccc3)N3CCOCC3)CC2)c(C)c1 (stereo not shown)', 54),
  ('COc1cc(C)c(S(=O)(=O)N2CCCC(COCC(=O)NC3CCC(C(c4ccccc4)N4CCOCC4)CC3)C2)c(C)c1 (stereo not shown)', 16),
  ('COc1cc(C)c(S(=O)(=O)N2CCC(OCC(=O)NC3CCC(C(CCc4ccccc4)N4CCOCC4)CC3)C2)c(C)c1 (stereo not shown)', 88),
  ('CN(C)C(CCc1ccccc1)C1CCC(NC(=O)CNC(=O)c2nc(-c3c(Cl)cccc3Cl)no2)CC1 (stereo not shown)', 104),
  ('COc1ccc(S(=O)(=O)N2Cc3ccccc3CC2COCC(=O)NCC2CCC(C(c3cccs3)N(C)C)CC2)cc1 (stereo not shown)', 47);

Give one value of inhibition at 10 µM per listed compound.
1. COc1ccc(S(=O)(=O)N(C)CCOCC(=O)NC2CCC(C(c3cccs3)N(C)C)CC2)cc1 (stereo not shown)
2. CN(C)C(c1cccc(F)c1)C1CCC(CNC(=O)COCC2CCCN2S(=O)(=O)c2ccc(Cl)c(Cl)c2)CC1 (stereo not shown)
3. COc1cc(C)c(S(=O)(=O)N2CCCC(COCC(=O)NCC3CCC(C(CCc4ccccc4)N4CCOCC4)CC3)C2)c(C)c1 (stereo not shown)
4. CN(C)C(c1ccccc1)C1CCC(CNC(=O)COCCN(C)S(=O)(=O)c2c(Cl)cccc2Cl)CC1 (stereo not shown)
5. COc1ccc(S(=O)(=O)N2CCCCC2CCOCC(=O)NCC2CCC(C(c3ccccc3)N(C)C)CC2)cc1 (stereo not shown)
6. CN1CCN(C(c2ccccc2)C2CCC(NC(=O)COCC3CCCN3S(=O)(=O)c3c(Cl)cc(Cl)cc3Cl)CC2)CC1 (stereo not shown)
7. CN(C)C(c1cccs1)C1CCC(CCNC(=O)COCCN(C)S(=O)(=O)c2cccc(C(F)(F)F)c2)CC1 (stereo not shown)

[11, 67, 64, 99, 42, 100, 32]

###

Kindly state inhibition at 10 µM for each of the entries shown.
- System tested: serotonin (5-HT) reuptake (Rattus norvegicus, UniProt P31652)
- Construct: synaptosomes are freshly isolated from areas of the rat brain; from tissue; host or cells: rat brain synaptosomes (P2 fraction)
- Sequence (P31652 whole entry): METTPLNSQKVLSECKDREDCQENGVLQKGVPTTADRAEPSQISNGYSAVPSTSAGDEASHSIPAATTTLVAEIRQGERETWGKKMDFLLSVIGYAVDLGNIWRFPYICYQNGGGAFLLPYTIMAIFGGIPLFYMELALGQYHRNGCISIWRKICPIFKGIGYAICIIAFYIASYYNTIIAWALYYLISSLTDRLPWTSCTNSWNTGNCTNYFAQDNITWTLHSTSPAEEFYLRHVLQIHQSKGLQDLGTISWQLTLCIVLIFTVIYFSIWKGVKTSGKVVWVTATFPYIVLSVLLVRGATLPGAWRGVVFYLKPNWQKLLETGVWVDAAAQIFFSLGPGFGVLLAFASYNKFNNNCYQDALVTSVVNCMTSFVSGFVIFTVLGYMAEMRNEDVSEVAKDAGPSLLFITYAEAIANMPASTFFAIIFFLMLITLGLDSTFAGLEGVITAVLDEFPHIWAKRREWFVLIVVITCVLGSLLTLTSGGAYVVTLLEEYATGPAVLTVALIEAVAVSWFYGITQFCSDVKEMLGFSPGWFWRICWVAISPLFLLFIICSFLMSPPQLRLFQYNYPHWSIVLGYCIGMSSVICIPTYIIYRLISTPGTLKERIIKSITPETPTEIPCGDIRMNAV
- Method summary: Inhibition of serotonin (5HT) reuptake in synaptosomes from rat brain
- Format: biochemical
- Particulars: test concentration of 10 μM; read-out: 5-HT (inhibition of reuptake of serotonin, % inhibition)
Answer as a quantity: numeral, then unit.

Worked cases, answers included:
INSERT INTO assay_data (molecule, system_tested, experimental_result) VALUES
  ('CN(C)C(c1ccccc1)C1CCC(NC(=O)COC2CCCCC2N(C)S(=O)(=O)c2ccc(Cl)c(Cl)c2)CC1 (stereo not drawn)', 'serotonin (5-HT) reuptake (Rattus norvegicus, UniProt P31652)', '91%'),
  ('COc1ccc(S(=O)(=O)N(C)CCOCC(=O)NCC2CCC(C(c3cccs3)N(C)C)CC2)cc1 (stereo not drawn)', 'serotonin (5-HT) reuptake (Rattus norvegicus, UniProt P31652)', '70%'),
  ('CCN(CCOCC(=O)NC1CCC(C(c2cccs2)N(C)C)CC1)S(=O)(=O)c1c(C)cc(OC)c(C)c1C (stereo not drawn)', 'serotonin (5-HT) reuptake (Rattus norvegicus, UniProt P31652)', '92%'),
  ('CN(C)C(c1cccs1)C1CCC(CCNC(=O)COC2CCN(S(=O)(=O)c3ccc(F)cc3)C2)CC1 (stereo not drawn)', 'serotonin (5-HT) reuptake (Rattus norvegicus, UniProt P31652)', '98%'),
  ('COc1ccc(S(=O)(=O)N2CCCCC2COCC(=O)NCC2CCC(C(c3cccc(F)c3)N(C)C)CC2)c(OC)c1 (stereo not drawn)', 'serotonin (5-HT) reuptake (Rattus norvegicus, UniProt P31652)', '87%');

Required: inhibition at 10 µM, one value per molecule below.
1. COc1ccc(S(=O)(=O)N2CCCCC2CCOCC(=O)NCC2CCC(C(c3ccccc3)N(C)C)CC2)cc1 (stereo not drawn)
2. CN(C)C(c1cccs1)C1CCC(CCNC(=O)COCCN2CCN(S(=O)(=O)c3ccccc3)CC2)CC1 (stereo not drawn)
3. COc1ccc(S(=O)(=O)N2CCCCC2COCC(=O)NCCC2CCC(C(c3cccc(F)c3)N(C)C)CC2)cc1 (stereo not drawn)
4. COc1cc(C)c(S(=O)(=O)N2CCC(CCOCC(=O)NC3CCC(C(c4ccc(F)cc4)N(C)C)CC3)CC2)c(C)c1C (stereo not drawn)
5. COc1ccc(S(=O)(=O)N(C)CCOCC(=O)NCC2CCC(C(c3cccs3)N(C)C)CC2)cc1OC (stereo not drawn)

1. 92%
2. 95%
3. 93%
4. 94%
5. 79%

Quick batch: inhibition at 10 µM for everything below.
1. CN(C)C(c1ccccc1)C1CCC(NC(=O)COCCN(C)S(=O)(=O)c2c(Cl)cc(Cl)cc2Cl)CC1 (stereo not drawn)
2. Cc1ccc(S(=O)(=O)N2CCC(OCC(=O)NCC3CCC(C(c4cccs4)N(C)C)CC3)C2)cc1 (stereo not drawn)

1: 79%; 2: 82%
